- Organism: Homo sapiens
- protocol-description: Selectivity index, ratio of Ki for recombinant human adenosine A2B receptor to Ki for recombinant human adenosine A1 receptor
quantity-measured: Ratio Ki

Form field Ratio Ki, entry `Cn1c(-c2ccccc2Cl)nc2c(NC3CCCC3)ncnc21` : > 811

`Cc1ccccc1-c1nc2c(NC3CCCC3)ncnc2n1C` has a reported Ratio Ki of > 545

Ratio Ki in this record for `Cc1ccc(-c2nc3c(NC4CCCC4)ncnc3n2C)cc1` : > 3750

The compound listed as `Cn1c(-c2ccc(F)cc2)nc2c(NC3CCCC3)ncnc21` has a reported Ratio Ki of > 4840

Ratio Ki reported for this compound `Cn1c(-c2ccccc2)nc2c(NC3CCCCC3)ncnc21` : > 5260

response.value for `Cn1c(-c2ccc(Cl)cc2)nc2c(NC3CCCC3)ncnc21` (field: Ratio Ki) = > 1670
